All figures here come from the supplement of paper PMC4466140.

TESTED ON: AgBzz1-D1
PROTOCOL DETAILS: SPOT peptide array binding signal intensity (averaged, normalized) (arbitrary units (background-subtracted, floor 0; scale differs between SH3 domains)); higher = stronger binding of the SH3 domain to the peptide
The label depends only on SPOT peptide array binding signal intensity: satisfied if it is at least 70, not satisfied if it is smaller.

Problem: Assess whether reported SPOT peptide array binding signal intensity for PHNPSPFFPPPDFND sits at 70 or higher.
Solution: not satisfied

Problem: Assess whether reported SPOT peptide array binding signal intensity for HGKRRAPLLLAKLDV sits at 70 or higher.
Solution: satisfied

Problem: Assess whether reported SPOT peptide array binding signal intensity for NRLRKRLNLPSEISI sits at 70 or higher.
Solution: not satisfied

Problem: Assess whether reported SPOT peptide array binding signal intensity for AVPPPPPPPPLPESL sits at 70 or higher.
Solution: not satisfied

Problem: Assess whether reported SPOT peptide array binding signal intensity for GPPPPLPPPLFPSSS sits at 70 or higher.
Solution: not satisfied

Problem: Assess whether reported SPOT peptide array binding signal intensity for IRMPSNPALPKKLLN sits at 70 or higher.
Solution: not satisfied
